# assayedTarget: Amine oxidase [flavin-containing] B (Homo sapiens, UniProt P27338)
# Sequence (P27338 whole entry): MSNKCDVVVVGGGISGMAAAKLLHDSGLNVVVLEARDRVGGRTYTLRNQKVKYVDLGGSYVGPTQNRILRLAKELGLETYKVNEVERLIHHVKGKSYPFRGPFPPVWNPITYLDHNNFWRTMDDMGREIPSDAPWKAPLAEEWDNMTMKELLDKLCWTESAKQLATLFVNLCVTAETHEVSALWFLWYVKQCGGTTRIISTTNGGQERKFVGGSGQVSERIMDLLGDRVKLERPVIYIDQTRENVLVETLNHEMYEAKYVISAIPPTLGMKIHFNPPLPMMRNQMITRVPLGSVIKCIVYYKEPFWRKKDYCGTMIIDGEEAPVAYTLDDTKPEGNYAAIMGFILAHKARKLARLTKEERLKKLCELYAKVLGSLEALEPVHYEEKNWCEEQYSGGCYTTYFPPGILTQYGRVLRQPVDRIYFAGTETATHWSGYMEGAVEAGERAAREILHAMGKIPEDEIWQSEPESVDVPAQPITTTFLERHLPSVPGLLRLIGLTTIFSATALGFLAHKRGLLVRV
# testProtocol: Inhibition of recombinant full length N-terminal FLAG-tagged human MAO-B expressed in baculovirus infected Sf9 insect cells using […] as substrate after 1 hr by spectrometric method
observable: IC50

I have this compound here, `O=C1NC(=S)N(c2ccc(Br)cc2)C(=O)C1=Cc1ccc(O)c(O)c1` , and I need its recorded IC50.
> 200 µM

====

# assayedTarget: Amine oxidase [flavin-containing] A (Homo sapiens)
# Sequence (P21397 whole entry): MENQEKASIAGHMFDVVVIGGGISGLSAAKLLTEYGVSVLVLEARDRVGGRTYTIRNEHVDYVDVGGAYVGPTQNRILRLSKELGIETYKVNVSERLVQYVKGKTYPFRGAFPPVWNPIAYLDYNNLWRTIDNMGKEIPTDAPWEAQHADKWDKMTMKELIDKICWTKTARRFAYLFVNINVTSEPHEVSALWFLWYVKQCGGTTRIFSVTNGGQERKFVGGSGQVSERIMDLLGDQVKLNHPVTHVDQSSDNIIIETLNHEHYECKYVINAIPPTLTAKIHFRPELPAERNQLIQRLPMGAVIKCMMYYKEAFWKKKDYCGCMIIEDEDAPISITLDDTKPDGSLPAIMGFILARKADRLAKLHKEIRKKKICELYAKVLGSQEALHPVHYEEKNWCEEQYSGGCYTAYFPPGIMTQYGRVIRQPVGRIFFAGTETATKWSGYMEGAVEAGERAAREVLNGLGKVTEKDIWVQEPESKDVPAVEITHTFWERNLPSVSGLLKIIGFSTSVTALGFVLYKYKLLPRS
# testProtocol: Inhibition of recombinant full length N-terminal FLAG-tagged human MAO-A expressed in baculovirus infected Sf9 insect cells using […] as substrate after 1 hr by spectrometric method
observable: pIC50
Numbers only, as −log10 of the molar value.

I have this molecule here, `O=C1NC(=S)N(c2ccc(Br)cc2)C(=O)C1=Cc1ccc(O)c(O)c1` , and I need its recorded pIC50.
4.14

====

# assayedTarget: Lysine-specific histone demethylase 1A (Homo sapiens, UniProt O60341)
So basically every entry gets a class from its IC50, ranges being bucket 1: < 1 µM; bucket 2: ≥ 1 µM and < 4 µM; bucket 3: ≥ 4 µM

- molecule: "COc1ccc(N2C(=O)NC(=O)C(=Cc3ccc(O)c(O)c3)C2=O)cc1"
  assayedTarget: "Lysine-specific histone demethylase 1A (Homo sapiens, UniProt O60341)"
  class: "bucket 2"

Which bin should I file `CCc1ccc(N2C(=O)NC(=O)/C(=C\c3cc4ccccc4[nH]3)C2=O)cc1` under?
bucket 3

Which bin should I file `Cc1ccc(N2C(=O)NC(=O)C(=Cc3cccc(O)c3)C2=O)cc1` under?
bucket 3

Which bin should I file COc1ccc(CC2C(=O)NC(=O)N(c3ccc(Br)cc3)C2=O)cc1OC (stereo not given) under?
bucket 3

Which bin should I file `COc1ccc(N2C(=O)NC(=O)/C(=C\c3ccc(N4CCOCC4)c(F)c3)C2=O)cc1` under?
bucket 3

====

# assayedTarget: Lysine-specific histone demethylase 1A (Homo sapiens, UniProt O60341)
# testProtocol: Binding affinity to fluorescently labeled recombinant human LSD1 expressed in Escherichia coli by MST analysis
observable: Kd (nM)
One number for each entry, in nM.

I have this compound here, `O=C1NC(=S)N(c2ccc(Br)cc2)C(=O)C1=Cc1ccc(O)c(O)c1` , and I need its recorded Kd.
1100

====

# assayedTarget: Lysine-specific histone demethylase 1A (Homo sapiens, UniProt O60341)
observable: IC50 (nM)
One number for each entry, in nM.

Past entries and their recorded results:
- chemSmiles: "COc1ccc(C=C2C(=O)NC(=O)N(c3ccc(Br)cc3)C2=O)c(OC)c1OC"
  IC50, nM: 3600
- chemSmiles: "O=C1NC(=O)N(c2ccc(Br)cc2)C(=O)C1=Cc1ccc(O)c(O)c1"
  IC50, nM: 300
- chemSmiles: "COc1ccc(C=C2C(=O)NC(=O)N(c3ccc(Br)cc3)C2=O)cc1O"
  IC50, nM: 3600
- chemSmiles: "O=C1NC(=S)N(c2ccc(Br)cc2)C(=O)C1=Cc1ccc(O)c(O)c1"
  IC50, nM: 410
- chemSmiles: "Cc1ccc(N2C(=O)NC(=O)C(=Cc3cc4ccccc4[nH]3)C2=O)cc1"
  IC50, nM: 1100

Batch of 5 compounds: report IC50 for each.
1. COc1cc(C=C2C(=O)NC(=O)N(c3ccc(Br)cc3)C2=O)cc(OC)c1O
2. COc1cc(C=C2C(=O)NC(=O)N(c3ccc(Br)cc3)C2=O)ccc1O
3. Cc1ccccc1N1C(=O)NC(=O)C(=Cc2cc3ccccc3[nH]2)C1=O
4. COc1ccc(C=C2C(=O)NC(=O)N(c3ccc(Br)cc3)C2=O)cc1OC
5. N#Cc1ccc(N2C(=O)NC(=O)C(=Cc3ccc(O)c(O)c3)C2=O)cc1

[550, 870, 4400, 2800, 1200]

Ref: ChEMBL document CHEMBL4229552
